Give Amount of complex entering erythrocytes for every item shown.
System: human erythrocytes
SETTINGS: pH 7.4
Answers are plain numbers, in n.mole.

The following compounds each have a reported value; give each one's Amount of complex entering erythrocytes.
1. COC(=O)CCn1ccc(=O)c([O-])c1C.COC(=O)CCn1ccc(=O)c([O-])c1C.COC(=O)CCn1ccc(=O)c([O-])c1C.[Fe+3]
2. Cc1c([O-])c(=O)ccn1CCCCCO.Cc1c([O-])c(=O)ccn1CCCCCO.Cc1c([O-])c(=O)ccn1CCCCCO.[Fe+3]
3. Cc1c([O-])c(=O)ccn1CCCO.Cc1c([O-])c(=O)ccn1CCCO.Cc1c([O-])c(=O)ccn1CCCO.[Fe+3]
4. Cc1c([O-])c(=O)ccn1CCCCO.Cc1c([O-])c(=O)ccn1CCCCO.Cc1c([O-])c(=O)ccn1CCCCO.[Fe+3]
5. COC(=O)Cn1cccc([O-])c1=O.COC(=O)Cn1cccc([O-])c1=O.COC(=O)Cn1cccc([O-])c1=O.[Fe+3]

1: 25; 2: 44; 3: 30; 4: 40; 5: 230

Suppose we examine the compound Cc1c([O-])c(=O)ccn1CCC(=O)O.Cc1c([O-])c(=O)ccn1CCC(=O)O.Cc1c([O-])c(=O)ccn1CCC(=O)O.[Fe+3] ; what Amount of complex entering erythrocytes value has been reported?
19
